- systemTested: native soluble IL-6R in human plasma (human, UniProt P08887)
- testSummary: ELISA 1, periplasmic extract; competitor IL-6; human plasma
measuredAttribute: OD450 ratio sample/blank

| binder | OD450 ratio sample/blank |
| --- | --- |
| IL6RPMP103A4 (VHH) VHH: EVQLVESGGGLVQPGGSLRLSCAASGSIFSINTMGWYRQVPGKQRELVATVRSGSITNYADSVQDRFTITRDIDENTVYLQMNSLKPEDTAVYYCLTRASVPGRGYQDYWGQGTQVTVSS | 1.04 |
| IL6RPMP106D6 (VHH) VHH: EVQLVESGGGLVQAGGSLRLSCAASGFTFDDYAIGWFRQAPGKEREGVSCMISSDGSTYYADSVKGRFTISSDNAKNTVYLQMDSLKPEDTAVYYCAADLSLYGCYVGDRDLYDYDYWGQGTQVTVSS | 1.27 |
| IL6RPMP120F4 (VHH) VHH: EVQLVESGGGLVQTGGSLRLSCAVSGRTDSTASVGWFRQAPGKQREWVVGISSGGSTHYADSVKGRFISSQDDAKNTVYLQMNSLKPEDTAIYYCAIAHGSSTYNYWGQGTQVTVSS | 0.498 |
| IL6RPMP103A2 (VHH) VHH: EVQLVESGGGLVQPGGSLRLSCAASGSIFSINTMGWYRQVPGKQRELVATVRSGSITNYADSVQDQFTITRDIDENTVYLQMNSLKPEDTAVYYCLTRASVPGRGYQDYWGQGTQVTVSS | 2.04 |

A = IL6RPMP120D2 (VHH) VHH: EVQLVESGGGLVQAGGSLSLSCATSGRTISDDTMAWFRQAPGKEREFVATITFSGARTHYSDSVRDRFTISRDNAKNTVYLQMNSLKSEDTAVYYCAASTKYYSSTYNYIHPAFYDIWGQGTQVTVSS
B = IL6RPMP101A5 (VHH) VHH: EVQLVESGGGLVQAGGSLRLSCTASGRTFSDYDMGWFRQAPGKERECVAIIDTNGDNTLIVGSVKGRFAISSDNAKNTVYLQMNSLLPEDTAVYTCAAGVWSSLRHTAANYWGQGTQVTVSS
C = IL6RPMP107A1 (VHH) VHH: EVQLVESGGGLVQAGGSLNLSCNASGDIGSINAMGWYRQAPGQQREWVAVITDTDSTIYPDSVKGRFAISRDGAKNTVHLRMSSLKPEDTAVYYCNAYQAGWGDYWGQGTQVTVSS
D = IL6RPMP103A5 (VHH) VHH: EVQLVESGGGLVQAGDSLRLSCVASGLPFSTLHMGWFRQAPGKEHESVSAISSDGGSEYYAGSVKGRFTISRDNAKNTVYLQMNSLKPEDTAVYYCAADPRRIGANIKYSDYWGQGTQVTVSS
Problem: Kindly order the items shown according to OD450 ratio sample/blank, from the highest value down. When ranking, write the labels in the order the request describes.
Result: D, B, A, C
